Origin of values: paper PMC9069370

tested on: HMLER; test: cells; type: cell-based, human; settings: 72 h
Peptide text beside a SMILES is read from it.
Could you please mark YES for values of IC50 below 3 µM and NO for values at or above it?

CC(C)C[C@H](NC(=O)CN)C(=O)N[C@@H](CC(C)C)C(=O)N[C@@H](CCCCN)C(=O)N[C@@H](CC(C)C)C(=O)N[C@@H](CC(C)C)C(=O)N[C@@H](CCC(=O)O)C(=O)N[C@@H](CC(C)C)C(=O)N[C@@H](CC(C)C)C(=O)N[C@@H](CC(C)C)C(=O)N[C@@H](Cc1c[nH]cn1)C(=O)N[C@@H](C)C(=O)N[C@@H](C)C(=O)NCC(=O)N[C@@H](Cc1c[nH]c2ccccc12)C(N)=O [KEH] (H-GLLKLLELLLHAAGW-NH2) | NO
CC(C)C[C@H](NC(=O)CN)C(=O)N[C@@H](CC(C)C)C(=O)N[C@@H](Cc1c[nH]cn1)C(=O)N[C@@H](CC(C)C)C(=O)N[C@@H](CC(C)C)C(=O)N[C@@H](CCC(=O)O)C(=O)N[C@@H](CC(C)C)C(=O)N[C@@H](CC(C)C)C(=O)N[C@@H](CC(C)C)C(=O)N[C@@H](CCC(=O)O)C(=O)N[C@@H](C)C(=O)N[C@@H](C)C(=O)NCC(=O)N[C@@H](Cc1c[nH]c2ccccc12)C(N)=O [HEE] (H-GLLHLLELLLEAAGW-NH2) | NO
CC(C)C[C@H](NC(=O)CN)C(=O)N[C@@H](CC(C)C)C(=O)N[C@@H](CCC(=O)O)C(=O)N[C@@H](CC(C)C)C(=O)N[C@@H](CC(C)C)C(=O)N[C@@H](CCCCN)C(=O)N[C@@H](CC(C)C)C(=O)N[C@@H](CC(C)C)C(=O)N[C@@H](CC(C)C)C(=O)N[C@@H](Cc1c[nH]cn1)C(=O)N[C@@H](C)C(=O)N[C@@H](C)C(=O)NCC(=O)N[C@@H](Cc1c[nH]c2ccccc12)C(N)=O [EKH] (H-GLLELLKLLLHAAGW-NH2) | YES
CC(C)C[C@H](NC(=O)CN)C(=O)N[C@@H](CC(C)C)C(=O)N[C@@H](CCCCN)C(=O)N[C@@H](CC(C)C)C(=O)N[C@@H](CC(C)C)C(=O)N[C@@H](Cc1c[nH]cn1)C(=O)N[C@@H](CC(C)C)C(=O)N[C@@H](CC(C)C)C(=O)N[C@@H](CC(C)C)C(=O)N[C@@H](Cc1c[nH]cn1)C(=O)N[C@@H](C)C(=O)N[C@@H](C)C(=O)NCC(=O)N[C@@H](Cc1c[nH]c2ccccc12)C(N)=O [KHH] (H-GLLKLLHLLLHAAGW-NH2) | NO
CC(C)C[C@H](NC(=O)CN)C(=O)N[C@@H](CC(C)C)C(=O)N[C@@H](Cc1c[nH]cn1)C(=O)N[C@@H](CC(C)C)C(=O)N[C@@H](CC(C)C)C(=O)N[C@@H](Cc1c[nH]cn1)C(=O)N[C@@H](CC(C)C)C(=O)N[C@@H](CC(C)C)C(=O)N[C@@H](CC(C)C)C(=O)N[C@@H](CCC(=O)O)C(=O)N[C@@H](C)C(=O)N[C@@H](C)C(=O)NCC(=O)N[C@@H](Cc1c[nH]c2ccccc12)C(N)=O [HHE] (H-GLLHLLHLLLEAAGW-NH2) | NO
